target: T1, monovalent hVISTA-ECD (human VISTA extracellular domain with His tail) (human, UniProt Q9H7M9 33-193); assay: SPR, pH 7.4
T1 construct: analyte flowed over captured antibody; also called huVISTA-His
T1 sequence (Q9H7M9 other isoform, or with tags, fused parts or gaps limits assumed): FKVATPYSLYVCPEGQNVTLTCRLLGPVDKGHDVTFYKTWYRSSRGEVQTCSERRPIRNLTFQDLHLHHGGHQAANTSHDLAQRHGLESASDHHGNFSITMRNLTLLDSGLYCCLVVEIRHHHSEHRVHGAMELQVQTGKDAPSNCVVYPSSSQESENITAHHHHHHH
readout kind: kon (M⁻¹ s⁻¹)
All answers are understood in M⁻¹ s⁻¹, so give the number only.

P1-064391 (41F11_HC_Mutant: D31E/Y50W/S55E/Y100E 41F11_LC_Mutant: V29D/A64G/R91T) (antibody, V domains shown, Kabat positions; also called P1-064391-1) VH: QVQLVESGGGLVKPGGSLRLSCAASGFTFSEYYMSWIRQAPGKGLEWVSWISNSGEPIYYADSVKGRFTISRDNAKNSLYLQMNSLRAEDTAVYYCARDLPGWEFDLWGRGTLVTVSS VL: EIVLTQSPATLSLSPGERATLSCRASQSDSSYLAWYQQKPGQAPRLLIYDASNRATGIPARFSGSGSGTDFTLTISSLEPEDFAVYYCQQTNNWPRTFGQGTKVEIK
630000

INPUT: Give the measured kon of P1-064510 (41F11_Vk_A25E/V29D/A64G/R91T) (antibody, V domains shown, also called P1-064510-1) VH: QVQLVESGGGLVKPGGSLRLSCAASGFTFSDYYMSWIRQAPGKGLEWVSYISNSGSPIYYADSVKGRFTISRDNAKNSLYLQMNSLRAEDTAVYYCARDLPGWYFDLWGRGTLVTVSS VL: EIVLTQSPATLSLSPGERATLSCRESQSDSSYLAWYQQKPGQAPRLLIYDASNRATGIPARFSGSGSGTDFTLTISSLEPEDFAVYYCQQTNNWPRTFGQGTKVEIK .
OUTPUT: 110000
